Biological target: T1, human TIGIT on cells (human, UniProt Q495A1 22-141)
T1 construct: also called Expi293 human TIGIT over-expressing cells
T1 sequence: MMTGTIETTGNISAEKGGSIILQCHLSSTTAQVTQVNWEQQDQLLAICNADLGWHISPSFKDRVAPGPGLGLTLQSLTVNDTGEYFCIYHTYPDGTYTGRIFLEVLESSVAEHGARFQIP
Experiment: FACS titration of AF647-labelled mAb on human effector memory CD8+ T cells, Donor 322
Metric: Kd

Binder: CPA.9.086.H4(S241P) (antibody, human IgG4 S228P, lambda, V domains shown) VH: EVQLVETGGGLIQPGRSLRLSCAASGFTFSSYAMHWVRQAPGKGLEWVAVISYAGEVKYYADSVKGRFTISRDNSKNTLYLQMNSLRAEDTAVYYCARDPLPLHYYGMDVWGQGTTVTVSS VL: QSALTQPRSASGNPGQRVTISCSGSSSNMGRRPVNWYQQIPGTAPKLLIYSQNQRPSGVPDRFSGSQSGTSASLTISGLQSEDEAEYFCAVWDDIGRVLQLGGGTQLAVLG
Result: 0.11 nM
--
Binder: CHA.9.547.7.H4(S241P) (antibody, human IgG4 S228P, kappa, V domains shown, humanized hybridoma anti-TIGIT antibody, human IgG4) VH: EVQLVESGGGLVQPGGSLRLSCAASGFTFSSYIMSWVRQAPGKGLEWVATISGGGTNTYYADSVKGRFTISRDNSKNTLYLQMNSLRAEDTAVYYCAKWLLSYYAMDYWGQGTLVTVSS VL: DIQMTQSPSSLSASVGDRVTITCRASQNINVWLTWYQQKPGKAPKLLIYKASKSHTGVPSRFSGSGSGTDFTLTISSLQPEDFATYYCQQGQSYPYTFGQGTKLEIKR
Result: 2.1 nM
--
Binder: CHA.9.547.13.H4(S241P) (antibody, human IgG4, V domains shown, humanized hybridoma antibody, human IgG4 (S241P)) VH: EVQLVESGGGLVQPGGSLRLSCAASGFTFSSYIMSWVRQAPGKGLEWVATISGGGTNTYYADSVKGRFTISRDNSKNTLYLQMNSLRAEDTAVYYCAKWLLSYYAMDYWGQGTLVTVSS VL: DIQMTQSPSSLSASVGDRITITCRASQNINVWLSWYQQKPGKAPKLLIYKASKSHTGVPSRFSGSGSGTDFTLTISSLQPEDFATYYCQQGQSYPYTFGQGTKLEIK
Result: 1.9 nM
